system: HACAT; assay: qHTS assay to identify novel small-molecules to repurpose for Merkel cell carcinoma treatment (AID 1296009); conditions: MCC and control cell lines, CellTiter-Glo viability, 72 h; at 44.8 µM (top of the series) unless noted; further: nearly all actives have a fitted effect of over 60% in size
Records with an inconclusive call do not appear. The source made the active and inactive calls. The call rests on the fitted dose curve; in most records, active means well fitted inhibition curve with a large enough effect; inconclusive means small, poorly fitted or top-dose-only effect; inactive means flat fitted curve, though single readings scatter.

compound	outcome
CN(C)C(=O)C(=O)c1cn(C)c2cc(Cl)c(C(=O)N3CCC(Cc4ccc(F)cc4)CC3)cc12	inactive
CC(=O)O[C@@H]1C[C@@]2(C)C(CC[C@]3(C)C2CC=C2C4CC(C)(C)CC[C@]4(C(=O)O)CC[C@]23C)C(C)(C)[C@H]1O (some centres undefined)	inactive [at 17.4 µM]
C=C1C(OC2OC(CO)C(O)C(O)C2O)CC2C(C)(C)C(O)CCC2(C)C1CC/C(C)=C\COC(=O)CC(=O)O (centres undefined)	inactive [at 17.4 µM]
CCNC1(C(N)=O)CN(c2nc(C)nc3c(-c4ccc(Cl)cc4)c(-c4ccccc4Cl)nn23)C1	inactive
C=CC(=O)N1CCCN(c2cc(NCCC(=O)O)nc(-c3ccccn3)n2)CC1	inactive
CCNC1(C(N)=O)CCN(c2ncnc3c2nc(-c2ccccc2Cl)n3-c2ccc(Cl)cc2)CC1	inactive
C/C=C\NC(=O)C1NC(=O)C(CC(N)=O)NC(=O)C(NC(=O)C(=O)C(C)CC)Cc2ccc(O)c(c2)-c2cccc3c2NC(=O)C3(O)C1O (centres undefined)	inactive [at 17.4 µM]
C=C(CCC1C(C)(O)CCC2C(C)(C)C(O)CCC12C)C(O)CO (centres undefined)	inactive
CC(=O)O[C@H]1C[C@H](OC(C)=O)[C@]2(C)[C@H](CC[C@@]34O[C@@H]3C3=C(C)C(=O)O[C@@H]3C[C@H]42)C1(C)C	inactive [at 17.4 µM]
CCOC(=O)c1ccc(OCCC2CCN(c3ccc(C)nn3)CC2)cc1	inactive
CCCN(CCc1ccsc1)C1CCc2c(O)cccc2C1 (centres undefined)	inactive
Cc1nc(C#Cc2ccnc(Cl)c2)c(C)n1-c1ccc(OC(F)(F)F)cc1	inactive
O=S(=O)(Nc1cc(Cl)c(Oc2cnc3ccccc3c2)c(Cl)c1)c1ccc(Cl)cc1Cl	inactive
COc1cc(/C=C2\CC[C@H]3COC[C@@H](c4cc(F)c(F)c(F)c4)N3C2=O)ccc1-n1cnc(C)c1	inactive
C=C1CCC[C@]2(C)CC/C(=C(/CO)C(=O)OC)C[C@@H]12	inactive
O=S(=O)(N[C@H]1CCCC[C@@H]1N1CCOCC1)c1ccc(Cl)cc1	inactive
CC1(C)C2CCC(CO[C@@H]3O[C@H](CO[C@@H]4OC[C@](O)(CO)[C@H]4O)[C@@H](O)[C@H](O)[C@H]3O)C1C2 (some centres undefined)	inactive [at 17.4 µM]
CCC(C)C1NC(=O)C(Cc2ccccc2)NC(=O)C(CCCCCC(=O)C(O)CO)NC(=O)C2CCCCN2C1=O (centres undefined)	inactive [at 17.4 µM]
CCn1c(-c2nonc2N)nc2c(C#CCO)ncc(OCCCN)c21	inactive
CC(C)(C)Sc1c(CC(C)(C)C(=O)O)n(Cc2ccc(Cl)cc2)c2ccc(OCc3ccc4ccccc4n3)cc12	inactive
COc1ccc2cc(-c3cc(-c4cc(Cl)cc(Cl)c4)nn3C(C)c3ccc(C(=O)NCCC(=O)O)cc3)ccc2c1 (centres undefined)	inactive
C=C1CC2OC(=O)C(=C)C2C(O)/C=C(\C)CCC1O (centres undefined)	inactive
CC(C)(C)c1ccc2c(c1)CC[C@H]2NC(=O)Nc1cccc2[nH]ncc12	inactive
Cc1nc2cc(C(=O)NCc3ccccn3)nn2c(C)c1Cc1cccc(Cl)c1	inactive
Cc1cccc(CC(=O)N2CCc3c2ccc(-c2cn(C)c4ncnc(N)c24)c3F)n1	inactive
CC(C)(C)NC(=O)[C@H]1CC[C@H]2[C@@H]3CC[C@H]4NC(=O)CC[C@]4(C)[C@H]3CC[C@]12C	inactive
O=C(Nc1ccccc1C(=O)Nc1ccc(CCO)cc1)c1ccc([N+](=O)[O-])cc1	inactive
COc1ccc(CCO[C@@H]2O[C@H](CO[C@H]3OC[C@](O)(CO)[C@H]3O)[C@@H](OC(=O)/C=C/c3ccc(O)c(O)c3)[C@H](O[C@@H]3O[C@@H](C)[C@H](O)[C@@H](O)[C@H]3O)[C@H]2O)cc1OC	inactive [at 17.4 µM]
CN(C)CCOc1cc(NS(=O)(=O)c2c(Cl)cc(C(F)(F)F)cc2Cl)ccc1Cl	inactive
COC1=CC(=O)O/C1=C(/OC)[C@@H]1O[C@H]1c1ccccc1	inactive
CN1CCN(C2=Nc3ccccc3Nc3ccc(OS(=O)(=O)C(F)(F)F)cc32)CC1	inactive
CCC(CC)C(=O)OC12C(OC(=O)C(C)C)C(C)C3(O)C(C=C(CO)CC4(O)C(=O)C(C)=CC43)C1C2(C)C (centres undefined)	inactive [at 17.4 µM]
C=C1CCC2C(C)(C(=O)O)CCCC2(C)C1CCC1=CCOC1=O (centres undefined)	inactive
